Each recorded value in this set is attributed to ChEMBL document CHEMBL5214977.

# Test system: RD
# ASSAY TEXT: Cytotoxicity against human RD cells assessed as inhibition of cell viability by measuring ATP level incubated for 72 hrs by cell titer-glo luminescent cell viability assay
# Type: functional
MEASURED ENDPOINT: CC50

QUERY SMILES | TESTED SYSTEM | CC50
CC(C)c1ccc(-c2ccc3ncc(-c4noc(C(F)(F)F)n4)cc3c2)cc1 | RD | > 200 µM
CCc1nc(-c2cnc3ccc(-c4ccccc4N)cc3c2)no1 | RD | 2.35 µM
Fc1ccc(-c2ccc3ncc(-c4noc(C(F)(F)F)n4)cc3c2)cc1 | RD | > 7.4 µM
CCc1nc(-c2cnc3ccc(-c4ccc(C)cc4)cc3c2)no1 | RD | > 7.4 µM
CCc1nc(-c2cnc3ccc(-c4ccc(O)cc4)cc3c2)no1 | RD | > 2.5 µM

Go through the list and state CC50 for each entry.
1. COc1ccc(-c2ccc3ncc(-c4noc(C)n4)cc3c2)cc1
2. CC(C)(C)c1nc(-c2cnc3ccc(-c4ccc(N)cc4)cc3c2)no1
3. CN(C)c1ccc(-c2ccc3ncc(-c4noc(C(F)(F)F)n4)cc3c2)cc1

Given back:
1: > 66.7 µM; 2: > 7.4 µM; 3: > 22.2 µM
